Test system: DU-145 prostate
Assay Protocol: NCI-60 one-dose screen, 48 h (100 = growth as untreated, 0 = no growth, -100 = all killed)
Experimental Parameters: 10 µM unless noted
This is part of a sample that, as a whole, favours compounds with a hit. Of some 83,000 tested, about 20% had one in any assay.
Answer Not satisfied if growth is under 50%, and Satisfied if it is 50% or more.

Would you please look over these solved cases?
{"Compound": "Cc1nc(-c2cc3ccccc3oc2=O)ccc1C(=O)/C=C/c1ccc(Cl)c(Cl)c1", "Tested Target": "DU-145 prostate", "Category": "Satisfied"}
{"Compound": "C#Cc1nc(C2=C(C)/C(=N/OCc3ccccc3)CC2)cs1", "Tested Target": "DU-145 prostate", "Category": "Satisfied"}
{"Compound": "Clc1ccc2oc3c(NCCCN4CCOCC4)c4ccccc4nc3c2c1", "Tested Target": "DU-145 prostate", "Category": "Not satisfied"}
{"Compound": "O=C1Nc2cc(Cl)ccc2/C1=C\\c1ccc(OCc2ccc(Br)cc2F)cc1", "Tested Target": "DU-145 prostate", "Category": "Not satisfied"}

Query string: API: above_or_equal(metric=growth, cutoff=50%) for item COc1ccc(NC(=O)c2sc3nc(-c4cnccn4)cc(-c4cccs4)c3c2N)cc1
Result string: Satisfied

Query string: API: above_or_equal(metric=growth, cutoff=50%) for item COc1ccccc1/C=C/C=N/NC1=NC2C(S1)N(C)C(=O)N2C (stereo not given)
Result string: Not satisfied
